Quick reference for PBMC pSTAT3 IC50 among some binders
system.under.test: T1, interleukin-23 receptor (IL-23R), Q5VWK5
T1 chain: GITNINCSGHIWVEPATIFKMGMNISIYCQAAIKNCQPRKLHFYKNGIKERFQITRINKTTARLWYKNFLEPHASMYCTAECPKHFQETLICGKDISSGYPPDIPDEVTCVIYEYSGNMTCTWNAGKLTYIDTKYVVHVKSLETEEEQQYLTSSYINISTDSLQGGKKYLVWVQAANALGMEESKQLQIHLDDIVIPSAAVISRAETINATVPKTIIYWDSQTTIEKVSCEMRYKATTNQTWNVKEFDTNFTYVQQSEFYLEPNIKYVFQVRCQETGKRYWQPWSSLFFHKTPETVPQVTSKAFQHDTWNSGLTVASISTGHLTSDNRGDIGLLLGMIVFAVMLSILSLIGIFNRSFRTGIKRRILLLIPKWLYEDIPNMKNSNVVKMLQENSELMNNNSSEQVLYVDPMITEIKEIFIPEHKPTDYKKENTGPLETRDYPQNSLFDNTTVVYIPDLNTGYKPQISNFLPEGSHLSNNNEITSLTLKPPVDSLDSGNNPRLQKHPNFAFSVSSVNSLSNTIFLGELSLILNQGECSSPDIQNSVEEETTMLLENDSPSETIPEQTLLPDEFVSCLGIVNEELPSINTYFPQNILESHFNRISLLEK
assay.explanation: cell-based or functional assay
Starred links: 1 amine or outer side, 2 acyl side, 3 side chain; linkers in the order of their positions; H or OH if unused. Positions of bridges follow the written chain, without caps; N, C: chain ends. Non-standard residues stand in square brackets, D forms with d. No end group written: not given here. X1 = 3‑(7-(3-acetamidophenyl)-1H-indol-3-yl)‑2‑aminopropanoic acid, CC(=O)Nc1cccc(-c2cccc3c(CC(N[*:1])C(=O)[*:2])c[nH]c23)c1; X3 = 4‑(2-(4-(2-amino-2-carboxyethyl)phenoxy)ethyl)‑4‑methylmorpholin‑4‑ium, C[N+]1(CCOc2ccc(CC(N[*:1])C(=O)[*:2])cc2)CCOCC1; X10 = 2‑amino‑3‑(4-(2-guanidinoethoxy)phenyl)propanoic acid, N=C(N)NCCOc1ccc(CC(N[*:1])C(=O)[*:2])cc1; X7 = 2‑amino‑3‑(5-methylpyridin-3-yl)propanoic acid, Cc1cncc(CC(N[*:1])C(=O)[*:2])c1; Trp(7-(3-AcNH-Ph)) = CC(=O)Nc1cccc(-c2cccc3c(C[C@H](N)C(=O)O)c[nH]c23)c1; 2Nal(6-OH) = N[C@@H](Cc1ccc2cc(O)ccc2c1)C(=O)O; 3Pal = N[C@@H](Cc1cccnc1)C(=O)O; Pen = CC(C)(S)[C@H](N)C(=O)O; Thp = NC1(C(=O)O)CCOCC1; Abu = CC[C@H](N)C(=O)O; Ava = NCCCCC(=O)O; Sar = CNCC(=O)O

{"binder": "R[Pen]NT[X1]K(Ac)[Pen][5‑(4-(2-amino-2-carboxyethyl)phenoxy)‑N,N,N‑trimethylpentan‑1‑aminium][2‑amino‑3‑(6-hydroxynaphthalen-2-yl)propanoic acid][Thp]EN[X7][Sar] (ends and bridges not checked) [SEQ ID NO: 20]", "PBMC pSTAT3 IC50": "< 0.1 nM"}
{"binder": "R[Pen]NT[Trp(7-(3-AcNH-Ph))]K(Ac)[Pen][X3][2Nal(6-OH)][Thp]EN[Thp] (disulfide 2-7 (inferred); ends not checked) [SEQ ID NO: 110]", "PBMC pSTAT3 IC50": "< 1 nM"}
{"binder": "[Ava][Abu]NTWQC[2‑amino‑3‑(4-(2-aminoethoxy)phenyl)propanoic acid][2‑amino‑3‑(6-hydroxynaphthalen-2-yl)propanoic acid][Thp]EN[3Pal][Sar] (ends and bridges not checked) [SEQ ID NO: 172]", "PBMC pSTAT3 IC50": "< 10 pM"}
{"binder": "R[Pen]NT[X1]K(Ac)[Pen][X10][2‑amino‑3‑(6-hydroxynaphthalen-2-yl)propanoic acid][Thp]EN[3Pal][Sar] (ends and bridges not checked) [SEQ ID NO: 35]", "PBMC pSTAT3 IC50": "< 0.1 nM"}
